target: Recombinant human IDO (Homo sapiens); experiment: hIDO biochemical assay (coupled with formamidase); conditions: coupled with kynurenine formamidase, fluorescence
Sequence (P14902 whole entry): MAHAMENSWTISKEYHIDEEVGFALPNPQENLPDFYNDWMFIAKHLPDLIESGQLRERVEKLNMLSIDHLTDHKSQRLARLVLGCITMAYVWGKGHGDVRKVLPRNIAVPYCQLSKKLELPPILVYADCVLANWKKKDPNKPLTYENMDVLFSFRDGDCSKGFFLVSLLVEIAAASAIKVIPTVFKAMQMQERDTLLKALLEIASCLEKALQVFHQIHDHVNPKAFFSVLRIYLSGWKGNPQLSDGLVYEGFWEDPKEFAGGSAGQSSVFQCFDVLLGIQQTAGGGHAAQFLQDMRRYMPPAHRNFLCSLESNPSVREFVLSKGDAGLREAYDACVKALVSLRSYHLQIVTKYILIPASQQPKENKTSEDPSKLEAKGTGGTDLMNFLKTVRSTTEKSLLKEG
measure-name: hIDO biochemical assay pIC50

Problem: Quick check: hIDO biochemical assay pIC50 of CC(N)C(=O)Nc1oncc1-c1ccccc1 (stereo not shown) ?
Solution: + (+ = pIC50 4.00-4.49)

Problem: Quick one: hIDO biochemical assay pIC50 of CC(=O)Nc1oncc1-c1ccccc1 ?
Solution: + (+ = pIC50 4.00-4.49)

Problem: Can you share its hIDO biochemical assay pIC50? I mean this compound: O=C(CO)Nc1oncc1-c1ccccc1
Solution: + (+ = pIC50 4.00-4.49)

----------
Target: Recombinant human TDO (Homo sapiens)
Test: hTDO biochemical assay (coupled with formamidase)
Conditions: 330 μM L-tryptophan, coupled with kynurenine formamidase, fluorescence
Experimental: Exemplary compounds of the invention were prepared, and tested to determine their effect as TDO and/or IDO inhibitors. […] This coupled enzyme system allowed conversion of N-formylkynurenine produced by TDO or IDO activity to kynurenine which was then quantified by fluorescence following addition of Erhlich's Reagent The protocols for these are set out below. […]
measure-name: hTDO biochemical assay pIC50

// solved cases for hTDO biochemical assay pIC50 follow
Problem: For the molecule O=C(CO)Nc1oncc1-c1ccccc1 , what hTDO biochemical assay pIC50 is on record?
Solution: +/− (+/− = pIC50 < 4.00)

Problem: I'd like to know its hTDO biochemical assay pIC50. The molecule in question is O=C(Nc1oncc1-c1ccccc1)c1ccccc1
Solution: + (+ = pIC50 4.00-4.49)

Problem: Record request: hTDO biochemical assay pIC50 value, item Nc1noc(N)c1-c1cccc(Cl)c1
Solution: + (+ = pIC50 4.00-4.49)

Problem: Item CC(=O)Nc1oncc1-c1ccccc1 has what recorded hTDO biochemical assay pIC50?
Solution: + (+ = pIC50 4.00-4.49)

Problem: Data request, read-out hTDO biochemical assay pIC50, for CC(C)CS(=O)(=O)Nc1cnoc1-c1ccccc1
Solution: +/− (+/− = pIC50 < 4.00)

Problem: Please report the recorded hTDO biochemical assay pIC50 for Nc1oncc1-c1cccc(F)c1 .
Solution: + (+ = pIC50 4.00-4.49)

Further cases:
Problem: Record request: hTDO biochemical assay pIC50 value, item CC(N)C(=O)Nc1oncc1-c1ccccc1 (stereo not drawn)
Solution: +/− (+/− = pIC50 < 4.00)

Problem: Can you share its hTDO biochemical assay pIC50? I mean this molecule: O=S(=O)(Nc1oncc1-c1ccccc1)c1ccccc1
Solution: +/− (+/− = pIC50 < 4.00)

----------
molecular target: TDO (A172) (Homo sapiens); construct: This assay utilised cancer cells which expressed either TDO (A172) or IDO (SKOV3); endogenous in cells; host or cells: A172 (human glioblastoma); test: A172 Kynurenine cell based assay; details: A172 human glioblastoma cells expressing TDO; kynurenine production, 48 hours
measure-name: A172 Kynurenine cell based assay pIC50

Problem: Query (molecule): Nc1noc(N)c1-c1cccc(Cl)c1 ; field requested: A172 Kynurenine cell based assay pIC50
Solution: +++ (+++ = pIC50 ≥ 5.50)

Problem: Look up A172 Kynurenine cell based assay pIC50: CC(C)CS(=O)(=O)Nc1cncn1-c1ccccc1
Solution: +/− (+/− = pIC50 < 4.00)

Problem: # get_value(readout='A172 Kynurenine cell based assay pIC50', item= Nc1oncc1-c1ccccc1Cl )
Solution: + (+ = pIC50 4.00-4.49)

Problem: Any idea what A172 Kynurenine cell based assay pIC50 was measured for O=S(=O)(Nc1oncc1-c1ccccc1)c1cccnc1 ?
Solution: +/− (+/− = pIC50 < 4.00)

Problem: Report A172 Kynurenine cell based assay pIC50 for O=S(=O)(CC1CCOCC1)Nc1oncc1-c1ccccc1 please.
Solution: +/− (+/− = pIC50 < 4.00)

Others:
Problem: Can you share its A172 Kynurenine cell based assay pIC50? I mean this molecule: OCCNc1oncc1-c1ccccc1
Solution: +++ (+++ = pIC50 ≥ 5.50)

Problem: Quick check: A172 Kynurenine cell based assay pIC50 of c1ccc(-n2nnnc2NCC2CCCCC2)cc1 ?
Solution: + (+ = pIC50 4.00-4.49)

Problem: Any idea what A172 Kynurenine cell based assay pIC50 was measured for CC(N)C(=O)Nc1oncc1-c1ccccc1 (centres unmarked) ?
Solution: +++ (+++ = pIC50 ≥ 5.50)

----------
molecular target: TDO (A172) (Homo sapiens, UniProt P48775); construct: This assay utilised cancer cells which expressed either TDO (A172) or IDO (SKOV3); endogenous in cells; host or cells: A172 (human glioblastoma); assay: A172 Kynurenine cell based assay; conditions: A172 human glioblastoma cells expressing TDO; kynurenine production, 48 hours
Sequence (P48775 whole entry): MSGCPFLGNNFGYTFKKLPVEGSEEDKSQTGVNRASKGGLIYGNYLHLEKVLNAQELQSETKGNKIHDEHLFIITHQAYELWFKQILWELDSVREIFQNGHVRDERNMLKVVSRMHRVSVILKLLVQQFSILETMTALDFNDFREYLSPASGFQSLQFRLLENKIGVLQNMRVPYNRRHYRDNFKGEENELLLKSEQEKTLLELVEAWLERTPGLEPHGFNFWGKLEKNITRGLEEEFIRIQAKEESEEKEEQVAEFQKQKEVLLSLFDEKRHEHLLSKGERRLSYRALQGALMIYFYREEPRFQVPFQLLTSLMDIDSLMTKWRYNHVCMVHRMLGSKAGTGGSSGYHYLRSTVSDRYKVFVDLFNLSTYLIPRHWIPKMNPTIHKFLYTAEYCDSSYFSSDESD
measure-name: A172 Kynurenine cell based assay pIC50

Sample records with A172 Kynurenine cell based assay pIC50:
Problem: Query: A172 Kynurenine cell based assay pIC50; subject: O=C(Nc1oncc1-c1ccccc1)c1ccccn1 [Compound 40]
Solution: +++ (+++ = pIC50 ≥ 5.50)

Problem: Look up A172 Kynurenine cell based assay pIC50: CCOC(=O)CCC(=O)Nc1oncc1-c1ccccc1 [Compound 28]
Solution: +++ (+++ = pIC50 ≥ 5.50)

Problem: I have this compound here, NCC(=O)Nc1oncc1-c1ccccc1 [Compound 73] , and I need its recorded A172 Kynurenine cell based assay pIC50.
Solution: +++ (+++ = pIC50 ≥ 5.50)

Problem: GET /values?readout=A172 Kynurenine cell based assay pIC50&item= NCCNc1oncc1-c1ccccc1 [Compound 82]
Solution: +++ (+++ = pIC50 ≥ 5.50)

Problem: May I ask what A172 Kynurenine cell based assay pIC50 has been recorded for O=S(=O)(Cc1ccccc1)Nc1oncc1-c1ccccc1 [Compound 29] ?
Solution: + (+ = pIC50 4.00-4.49)

Continuing:
Problem: Requested read-out: A172 Kynurenine cell based assay pIC50. Entry: CNC(=O)CCC(=O)Nc1oncc1-c1ccccc1 [Compound 65]
Solution: +++ (+++ = pIC50 ≥ 5.50)

Problem: Name the recorded A172 Kynurenine cell based assay pIC50 for CN(C)CCC(=O)Nc1oncc1-c1ccccc1 [Compound 69] .
Solution: +++ (+++ = pIC50 ≥ 5.50)

Problem: Which A172 Kynurenine cell based assay pIC50 is listed for COCC(=O)Nc1oncc1-c1ccccc1 [Compound 25] ?
Solution: +++ (+++ = pIC50 ≥ 5.50)

----------
biological target: TDO (A172) (Homo sapiens, UniProt P48775); construct: This assay utilised cancer cells which expressed either TDO (A172) or IDO (SKOV3); endogenous in cells; host or cells: A172 (human glioblastoma); test: A172 Kynurenine cell based assay; settings: A172 human glioblastoma cells expressing TDO; kynurenine production, 48 hours
measure-name: A172 Kynurenine cell based assay pIC50

See these solved cases before continuing.
Problem: Item under review: O=C(Nc1cnoc1-c1ccccc1)c1ccccc1 . Reported A172 Kynurenine cell based assay pIC50?
Solution: +/− (+/− = pIC50 < 4.00)

Problem: Any idea what A172 Kynurenine cell based assay pIC50 was measured for O=C(CO)Nc1oncc1-c1ccccc1 ?
Solution: +++ (+++ = pIC50 ≥ 5.50)

Problem: Field request: A172 Kynurenine cell based assay pIC50 | item: Cc1ccc(-c2cnoc2N)cc1
Solution: +++ (+++ = pIC50 ≥ 5.50)

Problem: # lookup: A172 Kynurenine cell based assay pIC50 of OCCCNc1oncc1-c1ccccc1
Solution: +++ (+++ = pIC50 ≥ 5.50)

Problem: # get_value(readout='A172 Kynurenine cell based assay pIC50', item= CC(C)CS(=O)(=O)Nc1cnoc1-c1ccccc1 )
Solution: +/− (+/− = pIC50 < 4.00)

Turning to the following compound.
Problem: Request the reported A172 Kynurenine cell based assay pIC50 associated with CC(O)C(=O)Nc1oncc1-c1ccccc1 (stereo not drawn)
Solution: +++ (+++ = pIC50 ≥ 5.50)

----------
target: IDO (SKOV3) (Homo sapiens, UniProt P14902); construct: IDO expression was induced in the SKOV3 cells by the addition of 500 ng/ml IFN-γ; endogenous in cells; host or cells: SKOV3 (human ovarian adenocarcinoma), IFN-γ induced; test: SKOV3 Kynurenine cell based assay; settings: SKOV3 human ovarian adenocarcinoma cells, IDO induced by IFN-γ; kynurenine production, 48 hours
measure-name: SKOV3 Kynurenine cell based assay pIC50

Record excerpt, results attached:
Problem: Give its SKOV3 Kynurenine cell based assay pIC50 value. Item: CC(C)(O)C(=O)Nc1oncc1-c1ccccc1 [Compound 64]
Solution: + (+ = pIC50 4.00-4.49)

Problem: # query: SKOV3 Kynurenine cell based assay pIC50 of entry CC(=O)Nc1oncc1-c1ccccc1 [Compound 17]
Solution: + (+ = pIC50 4.00-4.49)

Problem: Reported SKOV3 Kynurenine cell based assay pIC50, compound CC(C)S(=O)(=O)Nc1oncc1-c1ccccc1 [Compound 30] : ____
Solution: + (+ = pIC50 4.00-4.49)

Problem: Query: SKOV3 Kynurenine cell based assay pIC50; subject: O=C(O)CCC(=O)Nc1oncc1-c1ccccc1 [Compound 33]
Solution: +/− (+/− = pIC50 < 4.00)

New cases:
Problem: Requested read-out: SKOV3 Kynurenine cell based assay pIC50. Entry: CS(=O)(=O)NCCC(=O)Nc1oncc1-c1ccccc1 [Compound 48]
Solution: +/− (+/− = pIC50 < 4.00)

Problem: // SKOV3 Kynurenine cell based assay pIC50 lookup, key: CN1CCCCC1C(=O)Nc1oncc1-c1ccccc1 (stereo not drawn) [Compound 61]
Solution: +/− (+/− = pIC50 < 4.00)

Problem: Which value of SKOV3 Kynurenine cell based assay pIC50 has been reported for O=C(Nc1oncc1-c1ccccc1)C1CCCN1 (stereo not drawn) [Compound 66] in the records?
Solution: +/− (+/− = pIC50 < 4.00)
